Biological target: PTP1B (human recombinant) (Homo sapiens)
Construct: purchased Biomol International LP (Plymouth Meeting, PA, USA)
Sequence (P18031 1-435): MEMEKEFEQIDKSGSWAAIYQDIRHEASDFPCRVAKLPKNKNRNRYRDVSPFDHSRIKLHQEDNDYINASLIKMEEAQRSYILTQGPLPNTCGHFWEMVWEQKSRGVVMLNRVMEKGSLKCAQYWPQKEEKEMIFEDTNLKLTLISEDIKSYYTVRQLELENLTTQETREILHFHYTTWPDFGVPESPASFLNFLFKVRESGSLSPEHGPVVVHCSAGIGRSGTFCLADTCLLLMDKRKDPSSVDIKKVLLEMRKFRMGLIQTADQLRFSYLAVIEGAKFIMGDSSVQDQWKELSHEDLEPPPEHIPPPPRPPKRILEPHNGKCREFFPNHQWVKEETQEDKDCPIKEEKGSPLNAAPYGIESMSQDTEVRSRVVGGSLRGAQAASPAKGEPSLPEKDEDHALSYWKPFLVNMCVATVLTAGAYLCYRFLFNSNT
Assay: Protein tyrosine phosphatase 1B (PTP1B) inhibition assay with pNPP as substrate
Type: biochemical
Details: pNPP substrate; test concentration up to 100 µg/mL in 10% DMSO; triplicate; read-out: PTP1B IC50 (Mean ± SEM) (converted)
Could you please report measured IC50 for the items listed next?
// note: answer is a bare numeric in µM

Task item: I would be grateful if you could share the reported IC50 for COc1c(O)cc2c(c1O)C(=O)c1c(cc(C)c(O)c1OC)C2=O [Aurantio-obtusin] .
Reply: 82.3

Task item: I would be grateful if you could share the reported IC50 for COc1c(O)c(C)cc2c1C(=O)c1c(O)cccc1C2=O [Obtusifolin] .
Reply: 124

Task item: I would be grateful if you could share the reported IC50 for Cc1cc(O)c2c(c1)C(=O)c1cccc(O)c1C2=O [Chrysophanol] .
Reply: 23

Task item: I would be grateful if you could share the reported IC50 for COc1cc(O)c2c(c1)C(=O)c1cc(C)cc(O)c1C2=O [Physcion] .
Reply: 25.6

Task item: I would be grateful if you could share the reported IC50 for COc1cc(O)cc2c1C(=O)c1c(O)cc(C)cc1C2=O [Questin] .
Reply: 20

Task item: I would be grateful if you could share the reported IC50 for COc1cc2c(c(OC)c1OC)C(=O)c1c(cc(C)c(O)c1OC)C2=O [Chryso-obtusin] .
Reply: 41.5

Task item: I would be grateful if you could share the reported IC50 for Cc1cc2c(c(O)c1O)C(=O)c1c(O)cc(O)cc1C2=O [Alaternin, 2-hydroxy emodin] .
Reply: 4.26

Task item: I would be grateful if you could share the reported IC50 for Cc1cc(O)c2c(c1)C(=O)c1cc(O)cc(O)c1C2=O [Emodin, 1,6,8-trihydroxy 3-methyl anthraquinone] .
Reply: 13

Task item: I would be grateful if you could share the reported IC50 for O=C1c2cccc(O)c2C(=O)c2c(O)cc(CO)cc21 [Aloe-emodin] .
Reply: 207

Data origin: paper PMC6155831
